Reference source for all entries: patent US4259235A

test system: spring barley; test: Growth height of spring barley, soil treatment, Example 10; type: in vivo, spring barley ("Union" variety); details: 12 kg/ha
I'd appreciate it if you marked entries 1 when Plant height, % of untreated control is lower than 70% and -1 when it is not.

# count of solved cases: 3
Clc1ccc(C2N=NC3C4CC(C5N=NC45)C23)cc1 (stereo not shown) [drawing 404] ... 1
O=P(O)(O)CCCl [Ethephon, β-chloroethylphosphonic acid, reference compound] ... -1
COc1ccc(C2=NOC3C4CC(C5N=NC45)C23)cc1 (stereo not shown) [drawing 408] ... -1

stdin: Answer whether the compound Cc1ccc(C2=NOC3C4CC(C5N=NC45)C23)cc1 (stereo not shown) [drawing 407] has Plant height, % of untreated control strictly less than 70%
stdout: 1

stdin: Answer whether the compound Brc1ccc(C2=NOC3C4CC(C5N=NC45)C23)cc1 (stereo not shown) [drawing 405] has Plant height, % of untreated control strictly less than 70%
stdout: -1

###

test system: spring barley; test: Growth height of spring barley, leaf treatment, Example 10; format: in vivo, spring barley ("Union" variety); conditions: 1.5 kg/ha
Listed below: Plant height, % of untreated control values for each entry.
Report the figure in % without appending any unit label.

Worked set:
Clc1ccc(C2N=NC3C4CC(C5N=NC45)C23)cc1 (stereo not shown) [drawing 410] ... 78.6
O=P(O)(O)CCCl [Ethephon, β-chloroethylphosphonic acid, reference compound] ... 96.4
O=[N+]([O-])c1ccc(C2=NOC3C4CC(C5N=NC45)C23)cc1 (stereo not shown) [drawing 412] ... 89.3

stdin: Given FC(F)(F)c1cccc(NC2C(I)C3CC2C2N=NC32)c1 (stereo not shown) [drawing 415] , respond with its Plant height, % of untreated control.
stdout: 89.3

stdin: Given Clc1ccc(C2=NOC3C4CC(C5N=NC45)C23)cc1 (stereo not shown) [drawing 414] , respond with its Plant height, % of untreated control.
stdout: 92.9

stdin: Given Brc1ccc(C2=NOC3C4CC(C5N=NC45)C23)cc1 (stereo not shown) [drawing 411] , respond with its Plant height, % of untreated control.
stdout: 91.1

stdin: Given Cc1ccc(C2=NOC3C4CC(C5N=NC45)C23)cc1 (stereo not shown) [drawing 413] , respond with its Plant height, % of untreated control.
stdout: 91.1

###

test system: spring wheat; assay: Growth height of spring wheat, soil treatment, Example 10; format: in vivo, spring wheat ("Opal" variety); settings: 3 kg/ha
If the reported Plant height, % of untreated control equals or exceeds 70%, assign criterion met. If not, assign criterion not met.

# count of solved cases: 5
O=P(O)(O)CCCl [Ethephon, β-chloroethylphosphonic acid, reference compound] ... criterion met
Brc1ccc(C2=NOC3C4CC(C5N=NC45)C23)cc1 (stereo not shown) [drawing 393] ... criterion met
Clc1ccc(C2N=NC3C4CC(C5N=NC45)C23)cc1 (stereo not shown) [drawing 392] ... criterion not met
Clc1ccc(C2=NOC3C4CC(C5N=NC45)C23)cc1 (stereo not shown) [drawing 397] ... criterion not met
Cc1ccc(C2=NOC3C4CC(C5N=NC45)C23)cc1 (stereo not shown) [drawing 395] ... criterion met

stdin: Reported Plant height, % of untreated control at or above 70%? COc1ccc(C2=NOC3C4CC(C5N=NC45)C23)cc1 (stereo not shown) [drawing 396]
stdout: criterion met

stdin: Reported Plant height, % of untreated control at or above 70%? O=[N+]([O-])c1ccc(C2=NOC3C4CC(C5N=NC45)C23)cc1 (stereo not shown) [drawing 394]
stdout: criterion met
